Uptake amount: recorded values
System: vascular smooth muscle cells
assay.text: Uptake amount of iodine atoms by vascular smooth muscle cells (mixed culture with macrophage)
Assay type: cell-based
condition.description: liposome PC 50 nmol + PS 50 nmol + compound 75 nmol; cultured at 37° C. under 5% CO2 for 24 hours
Description: Dipalmitoyl-PC (Funakoshi, No. 1201-41-0225) and dipalmitoyl-PS (Funakoshi, No. 1201-42-0237) at the ratio shown below were dissolved in chloroform together with each of the iodine compounds of the present invention in an eggplant-shaped flask according to the method described in J. Med. Chem., 25 (12), 1500 (1982) to form a uniform solution. […] The diameters of the liposomes in the resulting dispersion were measured by using WBC analyzer (A-1042, Nihon Kohden). […]

# input.smiles, Uptake amount
measured = [
    ("O=C(CCCCCCCCCCOc1c(I)cc(I)cc1I)OCC(COC(=O)CCCCCCCCCCOc1c(I)cc(I)cc1I)OCCO", "36.1 × 10^−3 nmol/μg protein"),
    ("O=C(CCCCCCCCCCOc1c(I)cc(I)cc1I)OCC(COC(=O)CCCCCCCCCCOc1c(I)cc(I)cc1I)OC(=O)CCC(=O)N1CCOCC1", "31.4 × 10^−3 nmol/μg protein"),
    ("O=C(CCCCCCCCCCOc1c(I)cc(I)cc1I)OCC(COC(=O)CCCCCCCCCCOc1c(I)cc(I)cc1I)OC(=O)CN1CCOCC1", "49.8 × 10^−3 nmol/μg protein"),
    ("C[N+](C)(C)CCOP(=O)([O-])OC(COC(=O)CCCCCCCCCCOc1c(I)cc(I)cc1I)COC(=O)CCCCCCCCCCOc1c(I)cc(I)cc1I", "59.8 × 10^−3 nmol/μg protein"),
    ("CCOCCOCCOCCOC(COC(=O)CCCCCCCCCCOc1c(I)cc(I)cc1I)COC(=O)CCCCCCCCCCOc1c(I)cc(I)cc1I", "41.8 × 10^−3 nmol/μg protein"),
]
